Catalogue of pIC50 values
Biological target: TYK2 JH2 domain (Homo sapiens (Human))
Assay: TYK2 JH2 NanoBRET assay
Format: binding
Conditions: Table 20, read-out: TYK2 IC50
pIC50: −log10 of the molar value.

Would you please look over these solved cases?
molecule: CCC(=O)c1cnc(Nc2cc(C)n([C@H]3C[C@@H](O)C3)n2)cc1Nc1cccc(-c2ncn(C)n2)c1OC [Compound 21DD]
observed.property: pIC50
reported.value: 7.30 to 8.30
//
molecule: CCC(=O)c1cnc(Nc2ncc(CS(C)(=O)=O)cc2F)cc1Nc1cccc(-c2ncn(C)n2)c1OC [Compound 13AA]
observed.property: pIC50
reported.value: 7.30 to 8.30
//
molecule: CCC(=O)c1cnc(Nc2cnc(OCCCO)cn2)cc1Nc1cccc(-c2ncn(C)n2)c1OC [Compound 18Q]
observed.property: pIC50
reported.value: 7.30 to 8.30
//
molecule: CCC(=O)c1cnc(NC2=NN(C(=O)C3CC3)CC2)cc1Nc1cccc(-c2ncn(C)n2)c1OC [Compound 26A]
observed.property: pIC50
reported.value: 7.30 to 8.30
//
molecule: CCC(=O)c1cnc(NC(=O)C2CC2c2ccccn2)cc1Nc1cccc(-c2ncn(C)n2)c1OC (stereo not drawn) [Compound 22B]
observed.property: pIC50
reported.value: 6.30 to 7.30
//
molecule: CCC(=O)c1cnc(Nc2cc(CCN(C)C)ncn2)cc1Nc1cccc(-c2ncn(C)n2)c1OC [Compound 11F]
observed.property: pIC50
reported.value: > 8.30
//
molecule: CCC(=O)c1cnc(NC(=O)CCNC)cc1Nc1cccc(-c2ncn(C)n2)c1OC [Compound 23H]
observed.property: pIC50
reported.value: 6.30 to 7.30
//
molecule: CCC(=O)c1cnc(Nc2cc(-c3ncn(C)n3)ccn2)cc1Nc1cccc(-c2ncn(C)n2)c1OC [Compound 15F]
observed.property: pIC50
reported.value: > 8.30

(Q) What value of measured pIC50 is listed for CCC(=O)c1cnc(Nc2ccc(CS(C)(=O)=O)cn2)cc1Nc1cccc(-c2ncn(C)n2)c1OC [Compound 13A] ?
(A) > 8.30

(Q) Can you share its pIC50? I mean this molecule: CCC(=O)c1cnc(Nc2ccnc(OC3CN(C)C3)n2)cc1Nc1cccc(-c2ncn(C)n2)c1OC [Compound 18JJ]
(A) 7.30 to 8.30

====

Catalogue of pIC50 values
Biological target: TYK2 JH2 domain (Homo sapiens (Human), UniProt P29597)
Sequence (P29597 589-875): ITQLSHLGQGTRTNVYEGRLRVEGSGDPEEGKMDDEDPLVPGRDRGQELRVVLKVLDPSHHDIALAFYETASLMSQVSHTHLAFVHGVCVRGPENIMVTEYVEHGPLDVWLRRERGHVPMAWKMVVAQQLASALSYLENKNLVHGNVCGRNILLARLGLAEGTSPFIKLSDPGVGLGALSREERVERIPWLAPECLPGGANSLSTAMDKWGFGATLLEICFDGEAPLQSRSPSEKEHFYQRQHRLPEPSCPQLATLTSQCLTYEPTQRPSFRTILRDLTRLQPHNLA
Test: TYK2 JH2 NanoBRET assay
Type: binding
Details: Table 20, read-out: TYK2 IC50
pIC50: −log10 of the molar value.

In the examples that follow, each entry is paired with its recorded pIC50.
compound: CCC(=O)c1cnc(Nc2cc(OCCOC)n(C)n2)cc1Nc1cccc(-c2ncn(C)n2)c1OC [Compound 24A]
pIC50: > 8.30
//
compound: CCC(=O)c1cnc(Nc2ccc(O[C@@H]3CCN(C)C3)cn2)cc1Nc1cccc(-c2ncc(F)cn2)c1OC
pIC50: 7.30 to 8.30
//
compound: CCC(=O)c1cnc(Nc2ccn(C[C@H]3C[C@@H](O)C3)n2)cc1Nc1cccc(-c2ncn(C)n2)c1OC [Compound 21W]
pIC50: 7.30 to 8.30
//
compound: CCC(=O)c1cnc(Nc2cnc(C3(NC)CC3)cn2)cc1Nc1cccc(-c2ncn(C)n2)c1OC
pIC50: 7.30 to 8.30
//
compound: CCC(=O)c1cnc(Nc2ccc(P(C)(C)=O)cn2)cc1Nc1cccc(-c2ncn(C)n2)c1OC [Compound 15DD]
pIC50: 7.30 to 8.30

(Q) What measured pIC50 goes with CCC(=O)c1cnc(Nc2cnc(C(F)(F)CO)cn2)cc1Nc1cccc(-c2ncn(C)n2)c1OC [Compound 19D] ?
(A) 7.30 to 8.30

(Q) Field request: pIC50 | item: CCC(=O)c1cnc(Nc2ccc(S(C)(=N)=O)cn2)cc1Nc1nccc(-c2ncn(C)n2)c1OC (stereo not drawn) [Compound 13L]
(A) ≤ 6.30

(Q) For the compound COc1c(Nc2cc(Nc3ccc(OCCCO)cn3)ncc2C(=O)C2CC2)cccc1-c1ncn(C)n1 [Compound 18C] , what pIC50 is on record?
(A) > 8.30

(Q) Quick check: pIC50 of `CCC(=O)c1cnc(Nc2ccc(C(C)(C)N(C)C)cn2)cc1Nc1cccc(-c2ncn(C)n2)c1OC` ?
(A) > 8.30
